procedure.summary: Inhibition of human alpha-fucosidase using p-nitrophenyl glycopyranoside as substrate preincubated for 5 mins followed by substrate addition and measured after 20 mins by visible absorption spectroscopic analysis
result.type: IC50 (µM)
A number alone suffices; assume µM.

Fill in the blank: the reported IC50 of `C[C@@H]1N[C@@H](c2c[nH]nn2)[C@H](O)[C@@H]1O` is ____.
70

Fill in the blank: the reported IC50 of `C[C@@H]1N[C@@H](c2cn(CCCCCCn3cc([C@@H]4N[C@@H](C)[C@@H](O)[C@H]4O)nn3)nn2)[C@H](O)[C@@H]1O` is ____.
6.8

Fill in the blank: the reported IC50 of `C[C@@H]1N[C@@H](c2cn(-c3ccccc3)nn2)[C@H](O)[C@@H]1O` is ____.
4.2

Fill in the blank: the reported IC50 of `C[C@@H]1N[C@@H](c2cn(-c3ccc(S(=O)(=O)c4ccc(N=[N+]=[N-])cc4)cc3)nn2)[C@H](O)[C@@H]1O` is ____.
0.54

Fill in the blank: the reported IC50 of `C[C@@H]1N[C@@H](c2cn(CCOCCOCCOCCn3cc([C@@H]4N[C@@H](C)[C@@H](O)[C@H]4O)nn3)nn2)[C@H](O)[C@@H]1O` is ____.
26

Fill in the blank: the reported IC50 of `C[C@@H]1N[C@@H](c2cn(-c3ccc(S(=O)(=O)c4ccc(-n5cc([C@@H]6N[C@@H](C)[C@@H](O)[C@H]6O)nn5)cc4)cc3)nn2)[C@H](O)[C@@H]1O` is ____.
0.21
